Provenance of the data: patent US11208385B2

experimental_details: In vitro degradation experiment in rat liver homogenate (HPLC)
Type: in vitro ADME
applied_conditions: rat liver homogenate, 37° C., 50 μg/mL, 20 min
test_readout: Residual rate at 20 min (%)
Numbers only, in %.

Check out these entries, answers already filled in.
molecule	display_unit	Residual rate at 20 min (%)
CCOC(=O)c1cncn1[C@H](C)c1ccccc1 [Etomidate, reference compound]	%	95.9
CCC(OC(=O)OC(C)C)OC(=O)c1cncn1[C@H](C)c1ccccc1 (some centres unmarked) [Example 28]	%	0
CCOC(=O)OCOC(=O)c1cncn1[C@H](C)c1ccccc1 [Example 2]	%	0
CC[C@@H](C)OC(=O)OCOC(=O)c1cncn1[C@H](C)c1ccccc1 [Example 16]	%	0

// below: Residual rate at 20 min (%) requested for another molecule
Can you share its Residual rate at 20 min (%)? I mean this molecule: C[C@H](c1ccccc1)n1cncc1C(=O)OCOC(=O)OC(C)(C)C [Example 4] 43.6

----------
Task for the reader: assign each of the following compounds its reported Incidence rate (%) of muscle tremor.
Test system: SD rats
applied_conditions: continual infusion for 1 h
One number for each entry, in %.

compound	measurement_target	test_readout	numeric_result
CC(C)COC(=O)OCOC(=O)c1cncn1[C@H](C)c1ccccc1	SD rats	Incidence rate (%) of muscle tremor	10
CC(C)OC(=O)OCOC(=O)c1cncn1[C@H](C)c1ccccc1	SD rats	Incidence rate (%) of muscle tremor	0
COC(=O)OCOC(=O)c1cncn1[C@H](C)c1ccccc1	SD rats	Incidence rate (%) of muscle tremor	0
C[C@H](c1ccccc1)n1cncc1C(=O)OCOC(=O)OC(C)(C)C	SD rats	Incidence rate (%) of muscle tremor	20
CCOC(=O)OCOC(=O)c1cncn1[C@H](C)c1ccccc1	SD rats	Incidence rate (%) of muscle tremor	0
CC(C)OC(=O)OC(C)OC(=O)c1cncn1[C@H](C)c1ccccc1 (some centres unmarked)	SD rats	Incidence rate (%) of muscle tremor	10
CC[C@@H](C)OC(=O)OCOC(=O)c1cncn1[C@H](C)c1ccccc1	SD rats	Incidence rate (%) of muscle tremor	0
C[C@H](c1ccccc1)n1cncc1C(=O)OCOC(=O)OC(C(F)(F)F)C(F)(F)F	SD rats	Incidence rate (%) of muscle tremor	0
CCC(OC(=O)OC(C)C)OC(=O)c1cncn1[C@H](C)c1ccccc1 (some centres unmarked)	SD rats	Incidence rate (%) of muscle tremor	0
CCC(C)OC(=O)OCOC(=O)c1cncn1[C@H](C)c1ccccc1 (some centres unmarked)	SD rats	Incidence rate (%) of muscle tremor	0

Here's the next entry for you.
Endpoint output: Incidence rate (%) of muscle tremor of CCOC(=O)c1cncn1[C@H](C)c1ccccc1 [Etomidate, reference compound] . Value? 60

----------
For each of the compounds below, state its Incidence rate (%) of muscle tremor.
Tested on: SD rats
applied_conditions: single iv dose of 2ED50, 10 rats per group
Experimental: 150 male SD rats weighing 250˜300 g were randomly divided into 15 groups, 10 rats for one group. […] Drugs were injected to rats via caudal vein, and the injection time was 15 seconds. The abolition of righting reflex for 30 s or above was used as the indicator producing anaesthetic effect.
Numbers only, in %.

compound	measurement_target	numeric_result
CC[C@@H](C)OC(=O)OCOC(=O)c1cncn1[C@H](C)c1ccccc1	SD rats	0
C[C@H](c1ccccc1)n1cncc1C(=O)OCOC(=O)OC(C)(C)C	SD rats	0

Give Incidence rate (%) of muscle tremor for each of the items listed below.
1. CC(C)OC(=O)OCOC(=O)c1cncn1[C@H](C)c1ccccc1 [Example 3]
2. CC(C)COC(=O)OCOC(=O)c1cncn1[C@H](C)c1ccccc1
3. CC(C)OC(=O)OC(C)OC(=O)c1cncn1[C@H](C)c1ccccc1 (stereo partly drawn)
4. CC(C)OC(=O)OCOC(=O)c1cncn1[C@H](C)c1ccccc1 [Example 12]
5. CCC(OC(=O)OC(C)C)OC(=O)c1cncn1[C@H](C)c1ccccc1 (stereo partly drawn)
6. CC[C@H](C)OC(=O)OCOC(=O)c1cncn1[C@H](C)c1ccccc1
7. COC(=O)OCOC(=O)c1cncn1[C@H](C)c1ccccc1

1. 0
2. 10
3. 10
4. 0
5. 0
6. 0
7. 0

----------
experimental_details: In vitro degradation experiment in rat liver homogenate (HPLC)
Type: in vitro ADME
applied_conditions: rat liver homogenate, 37° C., 50 μg/mL, 20 min
Give measured Residual rate at 20 min (%) for each item. Keep answers brief.
Give bare numbers, in %.

Okay, here is my list. What is Residual rate at 20 min (%) for each of these?
1. COC(=O)OCOC(=O)c1cncn1[C@H](C)c1ccccc1 [Example 1]
2. C[C@H](c1ccccc1)n1cncc1C(=O)OCOC(=O)OC(C(F)(F)F)C(F)(F)F [Example 9]
3. COC(=O)C1(OC(=O)c2cncn2[C@H](C)c2ccccc2)CC1 [CPMM, reference compound]
4. CC(C)OC(=O)OCOC(=O)c1cncn1[C@H](C)c1ccccc1 [Example 3]
5. CC(C)COC(=O)OCOC(=O)c1cncn1[C@H](C)c1ccccc1 [Example 5]
6. CCC(C)OC(=O)OCOC(=O)c1cncn1[C@H](C)c1ccccc1 (stereo partly drawn) [Example 6]

0
39.8
0
0
0
0

Would you mind listing Residual rate at 20 min (%) for each of the following compounds?
1. CC(C)OC(=O)OC(C)OC(=O)c1cncn1[C@H](C)c1ccccc1 (stereo partly drawn) [Example 8]
2. COC(=O)CCOC(=O)c1cncn1[C@H](C)c1ccccc1 [MOC-ET, reference compound]
3. CC[C@H](C)OC(=O)OCOC(=O)c1cncn1[C@H](C)c1ccccc1 [Example 17]

0
0
0

----------
experimental_details: In vitro degradation experiment in rat liver homogenate (HPLC)
Assay type: in vitro ADME
applied_conditions: rat liver homogenate, 37° C., 50 μg/mL, 5 min
Method: In Vitro Degradation Experiment of Compounds. Chromatographic condition: mobile phase is methanol: H2O=65:35, and the water phase contains 0.06% ammonium acetate; the flow rate is 1 mL/min; the column temperature is 25° C. Apparatus: Agilent 1100 Series. […] […] The concentration of each compound at each time point was detected, that was divided by the initial concentration of each compound, to obtain the degradation ratio of each compound.
I'd be grateful if you could share measured Residual rate at 5 min (%) for these entries.
Answers are plain numbers, in %.

Worked examples follow.
compound	display_unit	Residual rate at 5 min (%)
CC[C@@H](C)OC(=O)OCOC(=O)c1cncn1[C@H](C)c1ccccc1	%	3.2
COC(=O)CCOC(=O)c1cncn1[C@H](C)c1ccccc1 [MOC-ET, reference compound]	%	0
CC(C)COC(=O)OCOC(=O)c1cncn1[C@H](C)c1ccccc1	%	0
C[C@H](c1ccccc1)n1cncc1C(=O)OCOC(=O)OC(C(F)(F)F)C(F)(F)F	%	72.1
CCC(C)OC(=O)OCOC(=O)c1cncn1[C@H](C)c1ccccc1 (some centres unmarked)	%	4.7
CC(C)OC(=O)OCOC(=O)c1cncn1[C@H](C)c1ccccc1	%	0

State the recorded Residual rate at 5 min (%) for every item in the following list.
1. COC(=O)C1(OC(=O)c2cncn2[C@H](C)c2ccccc2)CC1 [CPMM, reference compound]
2. CC(C)OC(=O)OC(C)OC(=O)c1cncn1[C@H](C)c1ccccc1 (some centres unmarked)

1. 0
2. 2.1

Please supply Residual rate at 5 min (%) for each of the following items, keeping them in order.
1. CCOC(=O)OCOC(=O)c1cncn1[C@H](C)c1ccccc1
2. CCOC(=O)c1cncn1[C@H](C)c1ccccc1 [Etomidate, reference compound]
3. COC(=O)OCOC(=O)c1cncn1[C@H](C)c1ccccc1

[0, 97.9, 0]

List Residual rate at 5 min (%) for every entry below, keeping the order given.
1. C[C@H](c1ccccc1)n1cncc1C(=O)OCOC(=O)OC(C)(C)C
2. CC[C@H](C)OC(=O)OCOC(=O)c1cncn1[C@H](C)c1ccccc1
3. CCC(OC(=O)OC(C)C)OC(=O)c1cncn1[C@H](C)c1ccccc1 (some centres unmarked)

1. 89.3
2. 3.1
3. 5.3

----------
System: SD rats
applied_conditions: single iv dose of 2ED50, 10 rats per group
Would you kindly list Incidence rate (%) of muscle tremor for each of these compounds?
Give bare numbers, in %.

Record excerpt, results attached:
compound	measurement_target	numeric_result
CCOC(=O)OCOC(=O)c1cncn1[C@H](C)c1ccccc1	SD rats	0
C[C@H](c1ccccc1)n1cncc1C(=O)OCOC(=O)OC(C(F)(F)F)C(F)(F)F	SD rats	0
CCOC(=O)c1cncn1[C@H](C)c1ccccc1 [Etomidate, reference compound]	SD rats	40
CCC(C)OC(=O)OCOC(=O)c1cncn1[C@H](C)c1ccccc1 (stereo partly drawn) [Example 11]	SD rats	0
CCC(C)OC(=O)OCOC(=O)c1cncn1[C@H](C)c1ccccc1 (stereo partly drawn) [Example 6]	SD rats	0

Let's switch to this compound now.
So what Incidence rate (%) of muscle tremor did CCC(C)OC(=O)OCOC(=O)c1cncn1[C@H](C)c1ccccc1.Cl (stereo partly drawn) get with SD rats? 0
